- Target Entity: pig brain prolyl oligopeptidase (Sus scrofa)
- Sequence (P23687 whole entry): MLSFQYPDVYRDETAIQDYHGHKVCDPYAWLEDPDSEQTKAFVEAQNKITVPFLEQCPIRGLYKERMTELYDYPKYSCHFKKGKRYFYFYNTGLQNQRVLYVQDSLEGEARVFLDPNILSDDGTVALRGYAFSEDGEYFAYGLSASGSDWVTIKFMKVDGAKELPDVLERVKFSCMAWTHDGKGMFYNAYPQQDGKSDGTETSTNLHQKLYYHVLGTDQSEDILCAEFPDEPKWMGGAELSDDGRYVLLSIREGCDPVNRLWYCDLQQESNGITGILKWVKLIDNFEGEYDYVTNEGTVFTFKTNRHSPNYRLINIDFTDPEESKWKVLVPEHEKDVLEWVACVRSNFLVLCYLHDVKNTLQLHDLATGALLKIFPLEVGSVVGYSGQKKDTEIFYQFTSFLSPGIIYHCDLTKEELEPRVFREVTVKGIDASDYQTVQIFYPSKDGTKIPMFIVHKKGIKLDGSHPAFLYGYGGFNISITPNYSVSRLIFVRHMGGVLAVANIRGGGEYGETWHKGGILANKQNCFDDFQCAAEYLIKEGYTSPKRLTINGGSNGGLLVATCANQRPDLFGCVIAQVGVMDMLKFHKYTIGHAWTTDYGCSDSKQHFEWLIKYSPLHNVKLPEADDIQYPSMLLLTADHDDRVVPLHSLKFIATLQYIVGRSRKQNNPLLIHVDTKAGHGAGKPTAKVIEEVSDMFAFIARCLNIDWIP
# label = T if IC50 < 30 nM else F

For orientation, consider the following solved cases.
compound=O=C(C1CCCC1)[C@@H]1CCCN1C(=O)c1cccc(C(=O)N2CCC[C@H]2C(=O)C2CCCC2)c1 target_entity="pig brain prolyl oligopeptidase (Sus scrofa)" cat=F
compound=N#C[C@@H]1CCCN1C(=O)[C@@H]1CCCN1C(=O)CCC(=O)N1CCCCCC1 target_entity="pig brain prolyl oligopeptidase (Sus scrofa)" cat=T
compound=O=C(CO)[C@@H]1CCCN1C(=O)[C@@H]1CCCN1C(=O)c1cccc(C(=O)N2CCC[C@H]2C(=O)N2CCCC2)c1 target_entity="pig brain prolyl oligopeptidase (Sus scrofa)" cat=T

Req: Could you please tell me whether IC50 recorded for O=C(NC(Cc1ccccc1)C(=O)N1CCCC1)c1cccc(C(=O)NC(Cc2ccccc2)C(=O)N2CCCC2)c1 (stereo not drawn) is less than 30 nM?
Resp: F

Req: Could you please tell me whether IC50 recorded for `O=C([C@@H]1CCCN1C(=O)c1cccc(C(=O)N2CCC[C@H]2C(=O)N2CCCC2)c1)N1CCCC1` is less than 30 nM?
Resp: T

Req: Could you please tell me whether IC50 recorded for `CSCC[C@H](NC(=O)c1cccc(C(=O)N[C@@H](CCSC)C(=O)N2CCCC2)c1)C(=O)N1CCCC1` is less than 30 nM?
Resp: F
